Target: human vasopressin receptor V2R (Homo sapiens, UniProt P30518)
Assay: Inhibition of vasopressin-induced activation of V2R (cAMP HTRF in HeLa-V2R cells)
Settings: AVP 2.25 nM, read-out: IC50, inhibition of cAMP increase in human cervical cancer cells (Human V2R Hela-Stable cell line OE2)
Readout type: IC50 (nM)

[a] Cc1ccccc1C(=O)Nc1ccc(C(=O)N2CCC3CCOC3c3cc(Cl)ccc32)c(C)c1 (single isomer, unassigned) [Compound 5]
[b] O=C(Nc1ccc(C(=O)N2CCC3CCNC3c3cc(Cl)ccc32)cn1)c1ccccc1C(F)(F)F (centres unmarked) [Compound 2]
[c] Cc1ccccc1C(=O)Nc1ccc(C(=O)N2CCC3COC3c3cc(Cl)ccc32)c(C)c1 (centres unmarked)
[d] Cc1ccccc1C(=O)Nc1ccc(C(=O)N2CCC3CCNC3c3cc(Cl)ccc32)c(C)c1 (centres unmarked)
input: Output the entries ranked by IC50 from maximum down to minimum. // ordering of labels required in reply
output: a, b, d, c

---

Biological target: human V1bR (Homo sapiens)
Construct: purchased Perkinelmer, USA
Sequence (P47901 whole entry): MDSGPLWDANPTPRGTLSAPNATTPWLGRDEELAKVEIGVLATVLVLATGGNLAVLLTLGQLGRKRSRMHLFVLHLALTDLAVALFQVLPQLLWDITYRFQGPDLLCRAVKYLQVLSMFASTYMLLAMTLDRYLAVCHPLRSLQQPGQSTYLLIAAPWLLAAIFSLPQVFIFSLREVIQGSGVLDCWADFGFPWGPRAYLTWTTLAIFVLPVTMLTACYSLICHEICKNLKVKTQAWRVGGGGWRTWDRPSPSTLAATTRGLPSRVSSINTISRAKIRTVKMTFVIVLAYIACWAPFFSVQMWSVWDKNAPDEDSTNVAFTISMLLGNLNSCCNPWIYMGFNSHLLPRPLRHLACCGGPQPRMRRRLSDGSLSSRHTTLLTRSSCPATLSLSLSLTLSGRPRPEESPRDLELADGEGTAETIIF
Assay: Competitive isotope ligand binding, V1b receptor
Details: read-out: Binding affinity V1bR, N = 1; isotope-labeled vasopressin […], experiment 1, bound printed in μM
Readout type: Ki

input: // fetch human V1bR (Homo sapiens) Ki for Cc1ccccc1C(=O)Nc1ccc(C(=O)N2CCCC(O)c3cc(Cl)ccc32)c(C)c1 (stereo not shown) [Reference substance 1, Tolvaptan, reference compound]
output: > 10 µM

---

// reported Ki for each item listed
Target: human V1bR (Homo sapiens)
Construct: purchased Perkinelmer, USA
Experiment: Competitive isotope ligand binding, V1b receptor
Settings: read-out: Binding affinity V1bR, N = 2; isotope-labeled vasopressin […], experiment 2, bound printed in μM

O=C(Nc1ccc(C(=O)N2CC[C@@H]3CCN[C@H]3c3cc(Cl)ccc32)cn1)c1ccccc1C(F)(F)F (single isomer, unassigned) [Compound 10A]
> 10 µM

input: Entry Cc1ccccc1C(=O)Nc1ccc(C(=O)N2CCCC(O)c3cc(Cl)ccc32)c(C)c1 (centres unmarked) [Reference substance 1, Tolvaptan, reference compound] : reported Ki = ?
output: > 10 µM

---

Molecular target: human V2R (Homo sapiens, UniProt P30518)
Construct: purchased Perkinelmer, USA
Sequence (P30518 whole entry): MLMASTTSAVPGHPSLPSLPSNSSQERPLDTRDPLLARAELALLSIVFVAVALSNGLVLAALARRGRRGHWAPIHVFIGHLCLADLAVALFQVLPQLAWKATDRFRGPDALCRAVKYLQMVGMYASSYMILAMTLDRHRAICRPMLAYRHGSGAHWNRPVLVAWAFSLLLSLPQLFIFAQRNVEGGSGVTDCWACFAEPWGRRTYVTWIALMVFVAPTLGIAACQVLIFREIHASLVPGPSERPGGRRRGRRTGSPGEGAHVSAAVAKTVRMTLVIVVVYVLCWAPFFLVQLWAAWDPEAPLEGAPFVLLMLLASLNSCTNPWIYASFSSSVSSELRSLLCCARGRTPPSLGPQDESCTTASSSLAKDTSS
Experiment: Competitive isotope ligand binding, V2 receptor
Conditions: Binding affinity V2R, N = 2, isotope-labeled vasopressin 1 nM, experiment 2
Readout type: pKi
Scale note: pKi = -log10(concentration in M).

input: Entry O=C(Nc1ccc(C(=O)N2CC[C@@H]3CCN[C@H]3c3cc(Cl)ccc32)cn1)c1ccccc1C(F)(F)F (single isomer, unassigned) [Compound 10A] : reported pKi = ?
output: 8.56

---

As a worked illustration, we turn to pIC50 data collected for UniProtKB P47901.
pIC50: −log10 of the molar value.

Cc1ccccc1C(=O)Nc1ccc(C(=O)N2CCCC(O)c3cc(Cl)ccc32)c(C)c1 (centres unmarked) [Reference substance 1, Tolvaptan, reference compound]
< 5.00

Here is the next item to consider.
input: // fetch UniProtKB P47901 pIC50 for O=C(Nc1ccc(C(=O)N2CC[C@@H]3CCN[C@H]3c3cc(Cl)ccc32)cn1)c1ccccc1C(F)(F)F (single isomer, unassigned) [Compound 10A]
output: < 5.00

---

Target: human vasopressin receptor V2R (Homo sapiens)
Assay: Inhibition of vasopressin-induced activation of V2R (cAMP HTRF in HeLa-V2R cells)
Conditions: AVP 2.25 nM, read-out: IC50, inhibition of cAMP increase in human cervical cancer cells (Human V2R Hela-Stable cell line OE2)
Readout type: IC50 (nM)

O=C(Nc1ccc(C(=O)N2CC[C@@H]3CCN[C@H]3c3cc(Cl)ccc32)cn1)c1ccccc1C(F)(F)F (single isomer, unassigned) [Compound 10A]
31
Cc1cc(NC(=O)c2ccccc2Cl)ccc1C(=O)N1CCC2CNC2c2cc(Cl)ccc21 (stereo not shown)
92.7

[a] CN1CCC2CCN(C(=O)c3ccc(NC(=O)c4ccccc4C(F)(F)F)nc3)c3ccc(Cl)cc3[C@H]21 (stereo partly shown)
[b] Cc1ccccc1C(=O)Nc1ccc(C(=O)N2CCC3CCOC3c3cc(Cl)ccc32)c(C)c1 (single isomer, unassigned) [Compound 4]
input: Hi there! Just curious which has the higher IC50 between a and b . Answer = label.
output: a
(a: 84.7 nM, b: 7.45 nM)
